- Tested on: Apples
- test-name: Intermediate Retardant Test, apples, foliar spray compared with root drench
- Assay type: in vivo, Apples (Red Delicious)
- experimental-parameters: soil, 672 h; 2000 pmm (Root), root drench, approximately 28 days, Table IX; read-out: Percentage Reduction in Height of Apples (Compared to formulation blank)
endpoint-name: percent reduction in plant height at 2000 µg/mL (%)
Reply numerically in %, unit not repeated.

Please review the following examples before continuing.
- CCC(C)C#CC(O)(c1cncnc1)C(C)C (stereo not drawn): 76.1
- CC(C)CCC(O)(c1cncnc1)C(C)C (stereo not drawn): 70
- CC(C)(C)C(O)(C#CCCCCl)c1cncnc1 (stereo not drawn): 65
- CCCCCC(O)(c1cncnc1)C(C)(C)C (stereo not drawn): 71.1
- CC(C)CCCC(O)(c1cncnc1)C(C)(C)C (stereo not drawn): 66

INPUT: Reported percent reduction in plant height at 2000 µg/mL, molecule CC(C)CC#CC(O)(c1cncnc1)C(C)(C)C (stereo not drawn) : ____
OUTPUT: 47

INPUT: Field request: percent reduction in plant height at 2000 µg/mL | item: CCC(C)CCC(O)(c1cncnc1)C(C)C (stereo not drawn)
OUTPUT: 72.1

INPUT: Quick check: percent reduction in plant height at 2000 µg/mL of CCCC#CC(O)(c1cncnc1)C(C)(C)C (stereo not drawn) ?
OUTPUT: 58.5

INPUT: What does the record list as percent reduction in plant height at 2000 µg/mL for CCC(C)CC#CC(O)(c1cncnc1)C(C)C (stereo not drawn) ?
OUTPUT: 55

INPUT: Using the record for CC(C)C#CC(O)(c1cncnc1)C(C)(C)C (stereo not drawn) , report its percent reduction in plant height at 2000 µg/mL.
OUTPUT: 69

INPUT: Fill in the blank: the reported percent reduction in plant height at 2000 µg/mL of CC(C)C(O)(C#CCCCCl)c1cncnc1 (stereo not drawn) is ____.
OUTPUT: 49.3

INPUT: Quick one: percent reduction in plant height at 2000 µg/mL of CC(C)CCCC(O)(c1cncnc1)C(C)C (stereo not drawn) ?
OUTPUT: 45

INPUT: Which percent reduction in plant height at 2000 µg/mL reading was recorded for the molecule CC(C)CCC#CC(O)(c1cncnc1)C(C)C (stereo not drawn) ?
OUTPUT: 58

INPUT: Look up percent reduction in plant height at 2000 µg/mL: CC(C)C#CC(O)(c1cncnc1)C(C)C (stereo not drawn)
OUTPUT: 63

INPUT: GET /values?readout=percent reduction in plant height at 2000 µg/mL&item= CC(C)C(O)(C#CC(C)(C)C)c1cncnc1 (stereo not drawn)
OUTPUT: 69

----------
- Test system: Tomato
- test-name: Whole plant screen for plant growth regulator activity, tomato (TO)
- Type: in vivo, Tomato (Ailsa Craig)
- experimental-parameters: 4000 ppm (4 kg/ha), visual score after 2-6 weeks
endpoint-name: I = Interligular or internodal length reduction

* CCCCCC#CC(O)(c1cncnc1)C(C)(C)C (stereo not drawn) [Compound 32] | 1 (10-30%)
* CC(C)(C)C(O)(C#CCCCl)c1cncnc1 (stereo not drawn) [Compound 36] | 2 (31-60%)
* CC(C)(C)C(O)(C#CCCCCl)c1cncnc1 (stereo not drawn) [Compound 19] | 2 (31-60%)
* CC(C)CCC(O)(c1cncnc1)C(C)C (stereo not drawn) [Compound 13] | 2 (31-60%)
* CCCC#CC(O)(c1cncnc1)C(C)(C)C (stereo not drawn) [Compound 14] | 2 (31-60%)
* CC(C)(C)/C=C/C(O)(c1cncnc1)C(C)(C)C (stereo not drawn) [Compound 39] | 3 (61-100%)
* CC(C)C(O)(CCC(C)(C)C)c1cncnc1 (stereo not drawn) [Compound 20] | 3 (61-100%)
* CC(C)C#CC(O)(c1cncnc1)C(C)(C)C (stereo not drawn) [Compound 18] | 3 (61-100%)

INPUT: I'm curious: which I = Interligular or internodal length reduction was measured for CC(C)CC#CC(O)(c1cncnc1)C1CC1 (stereo not drawn) [Compound 56] tested on Tomato?
OUTPUT: 1 (10-30%)

INPUT: Param readout = I = Interligular or internodal length reduction; param system = Tomato; param query = CC(C)C#CC(O)(c1cncnc1)C(C)C (stereo not drawn) [Compound 9] ; response: value
OUTPUT: 1 (10-30%)

INPUT: Kindly state the measured I = Interligular or internodal length reduction obtained for CC(C)(C)/C=C/C(O)(c1cncnc1)C1(C)CC1 (stereo not drawn) [Compound 55] with Tomato.
OUTPUT: 2 (31-60%)

INPUT: For the record CC(C)C(O)(CC1CCCC1)c1cncnc1 (stereo not drawn) [Compound 27] , what value of I = Interligular or internodal length reduction is listed for Tomato?
OUTPUT: 2 (31-60%)

INPUT: Record lookup: for Tomato, what I = Interligular or internodal length reduction belongs to CC(C)CCCC(O)(c1cncnc1)C(C)(C)C (stereo not drawn) [Compound 17] ?
OUTPUT: 1 (10-30%)

INPUT: Missing value: I = Interligular or internodal length reduction, Tomato, entry CC(C)CCC(O)(c1cncnc1)C(C)(C)C (stereo not drawn) [Compound 29] . Fill in?
OUTPUT: 2 (31-60%)

INPUT: Form entry - test system: Tomato; read-out: I = Interligular or internodal length reduction; compound: CC(C)(C)/C=C/C(O)(c1cncnc1)C(C)(C)CF (stereo not drawn) [Compound 49]
OUTPUT: 1 (10-30%)

INPUT: Lab request: please report I = Interligular or internodal length reduction under test system Tomato for CCCCC#CC(O)(c1cncnc1)C(C)(C)C (stereo not drawn) [Compound 31]
OUTPUT: 3 (61-100%)

INPUT: Requested read-out I = Interligular or internodal length reduction, target or system Tomato, entry CCCCC(O)(c1cncnc1)C(C)(C)C (stereo not drawn) [Compound 35]
OUTPUT: 2 (31-60%)

INPUT: Recorded I = Interligular or internodal length reduction for CC(C)C(O)(C#CCCCCl)c1cncnc1 (stereo not drawn) [Compound 8] with Tomato, please?
OUTPUT: 3 (61-100%)

INPUT: Query I = Interligular or internodal length reduction on Tomato for CC(C)CCCC(O)(c1cncnc1)C(C)C (stereo not drawn) [Compound 7]
OUTPUT: 3 (61-100%)

INPUT: Write down the reported I = Interligular or internodal length reduction of CCCCCCCC(O)(c1cncnc1)C(C)C (stereo not drawn) [Compound 26] , test system: Tomato.
OUTPUT: 1 (10-30%)

INPUT: # returns recorded I = Interligular or internodal length reduction (system: Tomato) for CCCCCCC(O)(c1cncnc1)C(C)(C)C (stereo not drawn) [Compound 30]
OUTPUT: 2 (31-60%)

INPUT: API: value(readout=I = Interligular or internodal length reduction, system=Tomato) for record CCCCCCC#CC(O)(c1cncnc1)C(C)(C)C (stereo not drawn) [Compound 33]
OUTPUT: 1 (10-30%)

INPUT: Request body: readout I = Interligular or internodal length reduction, system Tomato, query CCC(C)CCCC(O)(c1cncnc1)C(C)C (stereo not drawn) [Compound 21] . Return the value.
OUTPUT: 2 (31-60%)

INPUT: For the record CC(C)CCCCC(O)(c1cncnc1)C(C)C (stereo not drawn) [Compound 22] , what value of I = Interligular or internodal length reduction is listed for Tomato?
OUTPUT: 2 (31-60%)

INPUT: Entry CC(C)CC#CC(O)(c1cncnc1)C(C)(C)C (stereo not drawn) [Compound 16] , system Tomato: what I = Interligular or internodal length reduction was measured?
OUTPUT: 3 (61-100%)

INPUT: Can you look up I = Interligular or internodal length reduction on Tomato for CCC(C)CCC(O)(c1cncnc1)C(C)C (stereo not drawn) [Compound 6] ?
OUTPUT: 2 (31-60%)

INPUT: For the record CCCCCC(O)(c1cncnc1)C(C)(C)C (stereo not drawn) [Compound 15] , what value of I = Interligular or internodal length reduction is listed for Tomato?
OUTPUT: 2 (31-60%)

INPUT: // lookup I = Interligular or internodal length reduction | system=Tomato | key= CCC(C)C#CC(O)(c1cncnc1)C(C)C (stereo not drawn) [Compound 5]
OUTPUT: 2 (31-60%)

INPUT: # query: I = Interligular or internodal length reduction | item CCC(Cl)CC#CC(O)(c1cncnc1)C(C)(C)C (stereo not drawn) [Compound 38] | system: Tomato
OUTPUT: 3 (61-100%)

INPUT: So what I = Interligular or internodal length reduction did CCC/C=C\C(O)(c1cncnc1)C(C)C (stereo not drawn) [Compound 25] get with Tomato?
OUTPUT: 1 (10-30%)
